Experiment: physchem
Conditions: water
ASSAY_ENDPOINT: solubility

Request: What value of solubility has been recorded for this entry: `C[C@@H]1[C@H](O)[C@@H](C)/C=C/C=C/C=C/C=C/C=C/C=C/C=C/[C@H](O[C@@H]2O[C@H](C)[C@@H](O)[C@H](N)[C@@H]2O)C[C@@H]2O[C@](O)(C[C@@H](O)C[C@@H](O)[C@H](O)CC[C@@H](O)C[C@@H](O)CC(=O)O[C@H]1C)C[C@H](O)[C@H]2C(=O)O`
Result: < 1080 µM
